# TEST_SYSTEM: human NPC1L1 (Homo sapiens, UniProt Q9UHC9, T1073A)
# Construct: expressed in transfected cells
# Sequence (Q9UHC9 22-1332 isoform Q9UHC9-2 T1046A): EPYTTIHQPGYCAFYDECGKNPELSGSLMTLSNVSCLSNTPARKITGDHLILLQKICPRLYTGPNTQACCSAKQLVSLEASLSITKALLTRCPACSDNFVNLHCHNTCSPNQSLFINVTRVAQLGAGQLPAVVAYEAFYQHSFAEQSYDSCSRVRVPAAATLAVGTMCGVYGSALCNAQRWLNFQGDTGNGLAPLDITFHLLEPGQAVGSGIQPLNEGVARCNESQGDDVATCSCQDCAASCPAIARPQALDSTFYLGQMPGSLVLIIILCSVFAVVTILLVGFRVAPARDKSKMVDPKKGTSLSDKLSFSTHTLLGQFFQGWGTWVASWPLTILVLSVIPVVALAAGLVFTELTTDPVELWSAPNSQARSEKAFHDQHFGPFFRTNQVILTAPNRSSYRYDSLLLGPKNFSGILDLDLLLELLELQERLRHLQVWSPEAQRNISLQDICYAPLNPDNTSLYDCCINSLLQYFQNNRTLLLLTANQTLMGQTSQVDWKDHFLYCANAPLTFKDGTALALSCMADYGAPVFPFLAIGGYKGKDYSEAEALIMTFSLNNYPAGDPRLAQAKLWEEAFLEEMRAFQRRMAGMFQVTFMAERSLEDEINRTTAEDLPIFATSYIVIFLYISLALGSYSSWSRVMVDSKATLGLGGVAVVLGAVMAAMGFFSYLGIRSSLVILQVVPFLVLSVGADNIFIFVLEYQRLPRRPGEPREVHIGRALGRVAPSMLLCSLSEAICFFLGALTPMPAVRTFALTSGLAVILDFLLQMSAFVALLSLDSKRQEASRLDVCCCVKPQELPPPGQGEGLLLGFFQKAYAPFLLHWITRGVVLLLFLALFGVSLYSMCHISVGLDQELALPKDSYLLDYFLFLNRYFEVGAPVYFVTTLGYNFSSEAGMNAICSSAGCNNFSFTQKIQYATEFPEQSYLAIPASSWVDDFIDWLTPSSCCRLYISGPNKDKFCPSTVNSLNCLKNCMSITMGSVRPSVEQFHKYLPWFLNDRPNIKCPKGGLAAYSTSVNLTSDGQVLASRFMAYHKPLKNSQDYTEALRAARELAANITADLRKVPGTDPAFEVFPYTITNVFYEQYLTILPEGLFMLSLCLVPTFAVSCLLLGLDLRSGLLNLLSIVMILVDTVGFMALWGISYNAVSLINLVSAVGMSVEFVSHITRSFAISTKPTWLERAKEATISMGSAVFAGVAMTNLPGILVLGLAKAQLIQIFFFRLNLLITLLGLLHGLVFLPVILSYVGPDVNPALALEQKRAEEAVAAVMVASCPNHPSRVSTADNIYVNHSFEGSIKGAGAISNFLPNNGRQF
# METHOD_NOTES: Fluorescence NPC1L1 binding assay, HEK-293 cells, BODIPY-labeled compound 1
# APPLIED_CONDITIONS: Human NPC1L1, competition with compound 1; read-out: Ki
OBSERVABLE: pKi
Scale note: pKi = -log10(concentration in M).

INSERT INTO measurements (smiles_representation, test_system, quantitative_readout) VALUES
  ('O=C(O)[C@H]1O[C@@H](Oc2ccc([C@@H]3[C@@H](CC[C@H](O)c4ccc(F)cc4)C(=O)N3c3ccc(F)cc3)cc2)[C@H](O)[C@@H](O)[C@@H]1O', 'human NPC1L1 (Homo sapiens, UniProt Q9UHC9, T1073A)', 6.18);

Pending compound:
stdin: Which pKi is reported for this compound? O=C1[C@H](CC[C@H](O)c2ccc(F)cc2)[C@@H](c2ccc(O)cc2)N1c1ccc(F)cc1
stdout: 5.65
